- TEST DETAILS: Terminal half life in human plasma at 320 mg administered as single dose
- Format: ADME, cell-free
- EXPERIMENTAL CONDITIONS: read-out: beta t1/2 (converted)
MEASUREMENT NAME: half-life (h)
# value in h; strip the unit string

INPUT: Given the molecule O=C([O-])C[C@H](O)C[C@H](O)CCn1c(-c2ccc(F)cc2)nc(C(=O)NCc2cccc(F)c2)c1C1CC1.[Na+] , write its reported half-life.
OUTPUT: 7.36

----------
- TEST DETAILS: Terminal half life in human plasma at 20 mg administered as single dose
- Type: ADME, cell-free
- EXPERIMENTAL CONDITIONS: read-out: beta t1/2 (converted)
MEASUREMENT NAME: half-life (h)
Form entry: value (h) — number only.

INPUT: Give the measured half-life for Cc1ccc(CNC(=O)c2nn(-c3ccc(F)cc3)c(CC[C@@H](O)C[C@@H](O)CC(=O)O)c2C(C)C)cc1
OUTPUT: 5.27

----------
- TEST DETAILS: Cmax in human plasma at 10 mg administered as single dose
- Format: ADME, organism-based
- Parameters: dose 10 mg
MEASUREMENT NAME: Cmax (ng/mL)
Provide the reading as a plain figure in ng/mL.

INPUT: Please report the measured Cmax for O=C([O-])C[C@H](O)C[C@H](O)CCn1c(-c2ccc(F)cc2)nc(C(=O)NCc2cccc(F)c2)c1C1CC1.[Na+]
OUTPUT: 0.355

----------
Below, each of the compounds is paired with its reported AUC(0-inf) value.
- TEST DETAILS: AUC (0 to infinity) in human plasma at 40 mg administered as single dose
- Assay type: ADME, cell-free
- Set-up: dose 40 mg, time infinity
Hi! Could you send only the number? It should be in µg·h/mL, unit omitted.

Cc1ccc(CNC(=O)c2nn(-c3ccc(F)cc3)c(CC[C@@H](O)C[C@@H](O)CC(=O)O)c2C(C)C)cc1 ... 5.11

Now look at this one.
INPUT: Return reported AUC(0-inf). Input compound: O=C([O-])C[C@H](O)C[C@H](O)CCn1c(-c2ccc(F)cc2)nc(C(=O)NCc2cccc(F)c2)c1C1CC1.[Na+]
OUTPUT: 0.00627

----------
- TARGET ENTITY: OATP1A1 (Rattus norvegicus, UniProt P46720)
- Sequence (P46720 whole entry): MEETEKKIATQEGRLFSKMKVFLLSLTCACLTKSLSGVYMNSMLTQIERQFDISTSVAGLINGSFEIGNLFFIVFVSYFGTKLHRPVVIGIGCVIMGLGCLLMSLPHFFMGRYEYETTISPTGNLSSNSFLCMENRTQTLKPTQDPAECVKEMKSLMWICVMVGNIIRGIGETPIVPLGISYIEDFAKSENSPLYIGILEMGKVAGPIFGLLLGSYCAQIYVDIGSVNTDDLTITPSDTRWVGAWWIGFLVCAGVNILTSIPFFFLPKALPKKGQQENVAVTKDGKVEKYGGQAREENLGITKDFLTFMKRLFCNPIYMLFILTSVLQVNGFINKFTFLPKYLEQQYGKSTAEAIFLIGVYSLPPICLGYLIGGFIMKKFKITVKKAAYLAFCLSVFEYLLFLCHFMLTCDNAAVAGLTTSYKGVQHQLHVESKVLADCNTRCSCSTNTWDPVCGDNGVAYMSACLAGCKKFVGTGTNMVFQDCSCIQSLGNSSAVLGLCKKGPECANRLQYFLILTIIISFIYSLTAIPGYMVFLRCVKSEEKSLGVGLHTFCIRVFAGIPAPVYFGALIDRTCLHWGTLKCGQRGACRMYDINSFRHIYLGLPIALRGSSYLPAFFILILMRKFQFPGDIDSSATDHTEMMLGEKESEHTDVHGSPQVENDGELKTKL
- TEST DETAILS: Drug uptake by rat hepatic OATP1A1 transporters expressed in CHO cells at 10 uM relative to wild type CHO cells
- Type: ADME, cell-based
- EXPERIMENTAL CONDITIONS: CHO cells expressing rat OATP1A1, read-out: FC
MEASUREMENT NAME: uptake ratio at 10 µM
// response body must contain only the number

Worked cases, answers included:
Cc1ncc2n1-c1ccc(Cl)cc1C(c1ccccc1F)=NC2 ... 1.7
Cc1ccc(CNC(=O)c2nn(-c3ccc(F)cc3)c(CC[C@@H](O)C[C@@H](O)CC(=O)O)c2C(C)C)cc1 ... 4.2

INPUT: System OATP1A1 (Rattus norvegicus, UniProt P46720). Read-out uptake ratio at 10 µM. Item CC[C@H](C)C(=O)O[C@H]1C[C@H](O)C=C2C=C[C@H](C)[C@H](CC[C@@H](O)C[C@@H](O)CC(=O)O)[C@H]21 . Report value.
OUTPUT: 3.9

INPUT: Report its uptake ratio at 10 µM with OATP1A1 (Rattus norvegicus, UniProt P46720) as the test system: CC(C)c1nc(N(C)S(C)(=O)=O)nc(-c2ccc(F)cc2)c1/C=C/[C@@H](O)C[C@@H](O)CC(=O)O
OUTPUT: 5.3

INPUT: Look up OATP1A1 (Rattus norvegicus, UniProt P46720) data: uptake ratio at 10 µM of O=C([O-])C[C@H](O)C[C@H](O)CCn1c(-c2ccc(F)cc2)nc(C(=O)NCc2cccc(F)c2)c1C1CC1.[Na+] , then report it.
OUTPUT: 4.4

----------
- TEST DETAILS: Cmax in human plasma at 3 mg administered as single dose
- Format: ADME, organism-based
- Design: dose 3 mg
MEASUREMENT NAME: Cmax (ng/mL)
The figure you give is taken to be in ng/mL; do not add the unit.

INPUT: Provide Cmax value for the following compound: O=C([O-])C[C@H](O)C[C@H](O)CCn1c(-c2ccc(F)cc2)nc(C(=O)NCc2cccc(F)c2)c1C1CC1.[Na+]
OUTPUT: 0.0552

----------
- TEST DETAILS: AUC (0 to infinity) in human plasma at 10 mg administered as single dose
- Assay type: ADME, cell-free
- Set-up: dose 10 mg, time infinity
MEASUREMENT NAME: AUC(0-inf)

INPUT: Look up AUC(0-inf) of O=C([O-])C[C@H](O)C[C@H](O)CCn1c(-c2ccc(F)cc2)nc(C(=O)NCc2cccc(F)c2)c1C1CC1.[Na+] and report it.
OUTPUT: 2.71 ng·h/mL

----------
- TARGET ENTITY: OATP1B1 (Homo sapiens)
- Sequence (Q9Y6L6 whole entry): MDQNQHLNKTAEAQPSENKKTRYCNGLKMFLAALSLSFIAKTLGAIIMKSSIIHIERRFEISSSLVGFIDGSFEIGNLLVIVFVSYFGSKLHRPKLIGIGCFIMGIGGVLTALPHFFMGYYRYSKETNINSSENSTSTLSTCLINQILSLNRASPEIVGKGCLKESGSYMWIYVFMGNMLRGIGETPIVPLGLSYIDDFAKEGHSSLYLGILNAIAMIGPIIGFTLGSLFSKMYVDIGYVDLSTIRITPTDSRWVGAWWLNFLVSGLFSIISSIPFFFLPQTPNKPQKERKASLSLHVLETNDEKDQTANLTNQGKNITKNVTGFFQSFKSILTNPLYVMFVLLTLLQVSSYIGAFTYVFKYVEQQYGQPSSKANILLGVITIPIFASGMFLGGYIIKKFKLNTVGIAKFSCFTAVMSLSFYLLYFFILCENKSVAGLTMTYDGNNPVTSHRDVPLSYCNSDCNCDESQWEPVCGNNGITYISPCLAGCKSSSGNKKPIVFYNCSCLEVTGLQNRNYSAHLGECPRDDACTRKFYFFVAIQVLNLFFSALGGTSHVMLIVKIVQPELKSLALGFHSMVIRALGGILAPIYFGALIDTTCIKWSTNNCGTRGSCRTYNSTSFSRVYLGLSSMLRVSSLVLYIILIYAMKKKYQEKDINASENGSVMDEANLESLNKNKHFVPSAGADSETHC
- TEST DETAILS: Drug uptake by human hepatic OATP1B1 transporter expressed in HEK293 cells at 1 uM relative to wild type HEK293 cells
- Type: ADME, cell-based
- EXPERIMENTAL CONDITIONS: HEK293 cells expressing human OATP1B1, read-out: FC
Overview of recorded uptake ratio at 1 µM for various molecules
Just the number.

// worked examples, uptake ratio at 1 µM included
CC[C@H](C)C(=O)O[C@H]1C[C@H](O)C=C2C=C[C@H](C)[C@H](CC[C@@H](O)C[C@@H](O)CC(=O)O)[C@H]21 ... 73.7
Cc1ccc(CNC(=O)c2nn(-c3ccc(F)cc3)c(CC[C@@H](O)C[C@@H](O)CC(=O)O)c2C(C)C)cc1 ... 21.6
CC(C)c1nc(N(C)S(C)(=O)=O)nc(-c2ccc(F)cc2)c1/C=C/[C@@H](O)C[C@@H](O)CC(=O)O ... 14.4
Cc1ncc2n1-c1ccc(Cl)cc1C(c1ccccc1F)=NC2 ... 0.6

Now consider a different molecule.
INPUT: Note uptake ratio at 1 µM for the molecule shown: O=C([O-])C[C@H](O)C[C@H](O)CCn1c(-c2ccc(F)cc2)nc(C(=O)NCc2cccc(F)c2)c1C1CC1.[Na+]
OUTPUT: 49

Measured values drawn from ChEMBL document CHEMBL1781963 for this set.
